Cited source: patent US20200031927A1

Overview of reported Kd across a group of binders:
- Tested on: T1, soluble KIR3DL1*001-Fc (human, UniProt P43629 22-340)
- T1 construct: also called KIR3DL1 allele 001; KIR3DL1 allele-001 antigen; not shown: Fc domain
- Assay info: BLI (Forte-Bio), partial fit, IgG

Binder	Kd
ET160-61 (antibody, human IgG1, V domains shown, Tested as human IgG1 (hIgG1), lambda light chain) VH: QVQLVESGGGLVQPGRSLRLSCAASGFTFDDYAMHWVRQAPGKGLEWVSGISWNSGSIGYADSVKGRFTISRDNAKNSLYLQMNSLRAEDTAVYYCASSLRYFEWPIDYWGQGTLVTVSS VL: NFMLTQPLSVSESPGKTVTISCTANGGSLASKYVQWFQQRPGSSPTTVIYDDNLRPSGVPDRFSGSIDTSSNSAALTISGLKTEDEADYYCQSYDNSSVVFGGGTKLTVLG	15.1 nM
ET160-77 (antibody, human IgG1, V domains shown, Tested as human IgG1 (hIgG1), lambda light chain) VH: EVQLVETGGGLVKPGGSLRLSCAASGFTFSDYYMSWIRQAPGKGLEWVSYISSSSSYTNYADSVKGRFTISRDNAKNSLYLQMNSLRAEDTAVYYCAREGIAAADAFDIWGQGTMVTVSS VL: SYELTQPPSVSVAPGQAATITCAGDNIESKSVNWYQQKPGQAPVLVVYDDTVRPSGIPERFSGSNSGNPATLTISRSEAGDEADYYCQVWDNRRDHVVFGGGTKVTVLG	13.9 nM

**Query** Name the recorded Kd for ET160-72 (antibody, human IgG1, V domains shown, Tested as human IgG1 (hIgG1), lambda light chain) VH: QVQLVQSGGGVVRSGGSLRLTCAASGFTFGDYGMSWVRQAPGKGLEWVSGINWNGGGTGYADSVKGRFTISRDNAKDSLYLQMNSLRAEDTALYYCARVWGCGSTTCYEGADDAFDIWGQGTMVTVSS VL: LPVLTQPPSISGAPRQRVTISCSGARSNIGNNAVNWYQQVPGEAPKLLIFYDDQQPSGISGRFSGSKSGTSASLAISGLQSEDEADYYCAAWDDSLNGWVFGGGTKLTVLG .
**Result** 15.8 nM

**Query** Proceed to ET160-73 (antibody, human IgG1, V domains shown, Tested as human IgG1 (hIgG1), kappa light chain) VH: QVQLVQSGAEVKKPGESLKISCKGSGYSFTSYWIGWVRQMPGKGLEWMGIIYPGDSDTRYSPSFQGQVTISADKSISTAYLQWSSLKASDTAMYYCARGREQLWLDGMDVWGQGTTVTVSS VL: DVVMTQSPLSLPVTLGQPASISCRSTQSLVHSDGNTYLNWFQQRPGQSPRRLIYGVSNRDFGVPDRFSASGSGTDFTLKINRVEAEDVGVYYCMQGTHWPLTFGQGTKVEIKR
**Result** 21.2 nM

**Query** Proceed to ET160-74 (antibody, human IgG1, V domains shown, Tested as human IgG1 (hIgG1), lambda light chain) VH: QVQLVQSGAEVKKPGSSVKVSCKASGGTFSSYAISWVRQAPGQGLEWMGWMNPNSGNTGYAQKFQGRVTMTRNTSISTAYMELSSLRSEDTAVYYCARYSFHLDGWGQGTLVTVSS VL: QSVLTQPPSVSAAPGQKVTISCSGSSSNVGNNYVSWYQQVPGTAPKLLIYDNNRRPSGIPDRFSGSKSGTSATLGITGLQTGDEADYYCGTWDNSLRVELFGGGTKVTVLG
**Result** 13.3 nM
